Assay: Determination of log P values by HPLC (reversed-phase C18)
Format: physicochemical
Conditions: HPLC, reversed-phase C18, 55° C.; final compounds table
Readout: log P neutral

>  <Compound>
O=C(Nc1ncn(-c2c(F)cccc2Br)n1)c1ccccc1I [Compound I-1-32]

>  <Recorded measurement>
2.08

$$$$
>  <Compound>
O=C(Nc1ncn(-c2c(F)cccc2F)n1)c1c(F)cccc1C(F)(F)F [Compound I-1-20]

>  <Recorded measurement>
2.04

$$$$
>  <Compound>
O=C(Nc1ncn(-c2c(F)cccc2Br)n1)c1ccccc1Cl [Compound I-1-31]

>  <Recorded measurement>
1.95

$$$$
>  <Compound>
O=C(Nc1ncn(-c2c(F)cccc2F)n1)c1ccsc1I [Compound I-1-94]

>  <Recorded measurement>
1.92

$$$$
>  <Compound>
Cc1cccc(Cl)c1-n1cnc(NC(=O)c2ccccc2C(F)(F)F)n1 [Compound I-1-40]

>  <Recorded measurement>
2.26

$$$$
